ASSAYED_SYSTEM: Adrenergic receptor alpha-2 (Rattus norvegicus, UniProt P22086+P19328+P22909)
ASSAY_PROTOCOL: Alpha-2 adrenergic receptor antagonistic activity in rat vas deferens vs clonidin
Assay type: functional, tissue-based
TEST_READOUT: pA2

- CN1c2ccccc2CC1C1=NCCN1 (centres undefined): 8.65
- C[C@@H]1Cc2ccccc2N(C)[C@@H]1C1=NCCN1: 5.88
- C[C@H]1c2ccccc2N(C)[C@@H]1C1=NCCN1: 6.96
- CN1c2ccc(Cl)cc2CC1C1=NCCN1 (centres undefined): 8.56
- CN1c2ccc(F)cc2CC1C1=NCCN1 (centres undefined): 8.45
- c1ccc2c(c1)CCC(C1=NCCN1)N2 (centres undefined): 8.03
- CN1c2ccc(Cc3ccccc3)cc2CC1C1=NCCN1 (centres undefined): 7.59
- CCC[C@@]1(C2=NCCN2)Cc2ccccc2N1C: 6.6
- CN1c2c(Cl)cc(Cl)cc2CC1C1=NCCN1 (centres undefined): 8
- CCCN1c2ccccc2CC1C1=NCCN1 (centres undefined): 8.76
- CCN1c2ccccc2CC1C1=NCCN1 (centres undefined): 8.91
- c1ccc(CN2c3ccccc3CC2C2=NCCN2)cc1 (centres undefined): 7.93
- CN1c2ccccc2CCC1C1=NCCN1 (centres undefined): 8.13

----------
Measured Ki of individual entries
ASSAYED_SYSTEM: Adrenergic receptor alpha-2 (Rattus norvegicus, UniProt P22086+P19328+P22909)
Sequence (P22086 whole entry): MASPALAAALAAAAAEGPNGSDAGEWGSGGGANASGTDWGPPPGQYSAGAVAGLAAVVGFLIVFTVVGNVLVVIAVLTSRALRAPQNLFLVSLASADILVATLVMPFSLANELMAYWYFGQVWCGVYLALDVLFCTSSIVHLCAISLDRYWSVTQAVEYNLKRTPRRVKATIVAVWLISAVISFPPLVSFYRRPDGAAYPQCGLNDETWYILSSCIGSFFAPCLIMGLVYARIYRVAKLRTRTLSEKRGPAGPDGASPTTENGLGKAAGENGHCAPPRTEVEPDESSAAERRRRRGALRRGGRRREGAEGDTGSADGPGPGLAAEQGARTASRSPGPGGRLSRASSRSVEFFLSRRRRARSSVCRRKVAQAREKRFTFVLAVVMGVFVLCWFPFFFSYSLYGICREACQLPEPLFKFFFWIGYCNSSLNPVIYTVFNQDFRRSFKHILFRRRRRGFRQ
Sequence (P19328 whole entry): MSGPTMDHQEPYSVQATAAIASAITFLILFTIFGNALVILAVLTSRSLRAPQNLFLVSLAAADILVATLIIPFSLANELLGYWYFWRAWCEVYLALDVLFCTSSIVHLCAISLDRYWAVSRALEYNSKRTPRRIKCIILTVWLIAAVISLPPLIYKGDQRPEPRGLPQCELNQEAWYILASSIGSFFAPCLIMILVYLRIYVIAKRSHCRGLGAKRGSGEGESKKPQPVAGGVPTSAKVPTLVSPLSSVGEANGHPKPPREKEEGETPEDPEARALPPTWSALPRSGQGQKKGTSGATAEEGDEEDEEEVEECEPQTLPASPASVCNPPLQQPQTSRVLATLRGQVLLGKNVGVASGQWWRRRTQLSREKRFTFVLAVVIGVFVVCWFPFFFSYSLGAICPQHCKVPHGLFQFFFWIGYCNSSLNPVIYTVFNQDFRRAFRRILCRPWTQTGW
Sequence (P22909 whole entry): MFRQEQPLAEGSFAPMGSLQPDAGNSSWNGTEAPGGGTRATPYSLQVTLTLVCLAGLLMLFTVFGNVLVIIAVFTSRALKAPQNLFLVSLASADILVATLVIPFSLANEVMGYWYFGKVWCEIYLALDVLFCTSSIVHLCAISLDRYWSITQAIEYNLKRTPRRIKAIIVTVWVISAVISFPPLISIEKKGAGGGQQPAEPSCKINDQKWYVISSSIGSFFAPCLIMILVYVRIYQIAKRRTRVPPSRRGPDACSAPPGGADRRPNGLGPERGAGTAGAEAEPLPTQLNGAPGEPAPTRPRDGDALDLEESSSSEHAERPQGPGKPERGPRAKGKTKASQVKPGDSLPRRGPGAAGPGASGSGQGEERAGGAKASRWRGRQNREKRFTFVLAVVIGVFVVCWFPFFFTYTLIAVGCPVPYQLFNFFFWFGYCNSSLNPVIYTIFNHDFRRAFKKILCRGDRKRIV
ASSAY_PROTOCOL: Binding affinity against alpha-2 adrenergic receptor was determined by the displacement of [3H]clonidine from rat brain cortical membranes
Assay type: cell membranes, Membrane
TEST_READOUT: Ki (nM)

• CN1c2ccccc2CC1CC1=NCCN1 (stereo not given) = 355
• CSC[C@@]1(C2=NCCN2)Cc2ccccc2N1C = 13.2
• C=CC[C@@]1(C2=NCCN2)Cc2ccccc2N1C = 77
• CCC[C@@]1(C2=NCCN2)Cc2ccccc2N1C = 260
• C[C@H]1c2ccccc2N(C)[C@@H]1C1=NCCN1 = 72.3
• CN1c2c(Cl)cc(Cl)cc2CC1C1=NCCN1 (stereo not given) = 12.3
• CCOCCN1c2ccccc2CC1C1=NCCN1 (stereo not given) = 26
• C=CCN1c2ccccc2CC1C1=NCCN1 (stereo not given) = 0.47
• COC[C@@]1(C2=NCCN2)Cc2ccccc2N1C = 38
• CN(CC1=NCCN1)c1ccccc1 = 3.9
• CCCN1c2ccccc2CC1C1=NCCN1 (stereo not given) = 1.93
• CN1c2ccccc2CCC1C1=NCCN1 (stereo not given) = 1.52
• CN1c2ccc(Cc3ccccc3)cc2CC1C1=NCCN1 (stereo not given) = 53.6
• CN1c2ccccc2CC1C1=NCCN1 (stereo not given) = 0.45
• CCCCN1c2ccccc2CC1C1=NCCN1 (stereo not given) = 3.5
• c1ccc(N2c3ccccc3CC2C2=NCCN2)cc1 (stereo not given) = 4.2
• c1ccc2c(c1)CCC(C1=NCCN1)N2 (stereo not given) = 13.8
• CC(C)N(C[C@@]1(C2=NCCN2)Cc2ccccc2N1C)C(C)C = 25.1
• c1ccc(CCN2c3ccccc3CC2C2=NCCN2)cc1 (stereo not given) = 6
• CCN1c2ccccc2CC1C1=NCCN1 (stereo not given) = 0.91
• CN1c2ccc(F)cc2CC1C1=NCCN1 (stereo not given) = 0.91
• c1ccc(CN2c3ccccc3CC2C2=NCCN2)cc1 (stereo not given) = 2.3
• c1ccc2c(c1)CC(C1=NCCN1)N2 (stereo not given) = 2.11
• C[C@@H]1c2ccccc2N(C)[C@@H]1C1=NCCN1 = 6.9
